// reported IC50, PAR-2 β-arrestin cell assay for each item listed
Target: T1, human PAR-2 (human, UniProt P55085 26-397)
T1 sequence: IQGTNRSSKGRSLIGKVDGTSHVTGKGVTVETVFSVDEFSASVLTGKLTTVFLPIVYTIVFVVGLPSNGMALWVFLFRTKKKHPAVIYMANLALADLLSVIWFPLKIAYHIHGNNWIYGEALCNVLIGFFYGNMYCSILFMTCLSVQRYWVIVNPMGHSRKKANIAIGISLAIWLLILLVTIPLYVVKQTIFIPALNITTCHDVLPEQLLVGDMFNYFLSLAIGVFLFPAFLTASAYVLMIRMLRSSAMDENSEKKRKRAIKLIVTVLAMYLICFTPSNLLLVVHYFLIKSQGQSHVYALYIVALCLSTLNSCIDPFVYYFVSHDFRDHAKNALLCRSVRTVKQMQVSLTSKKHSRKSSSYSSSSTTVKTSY
Assay: cell-based or functional assay
# output: number + unit

Below: 3 binders and their reported IC50, PAR-2 β-arrestin cell assay.
- Ab435 (antibody, human IgG4, V domains shown) VH: EVQLVESGGGLVQPGRSLKLSCVGSGFTFNNYWMTWIRQAPGWGLEWVASITNTGGRTYYPDSVKGRFTISRDNAKSTLYLQMNSLRSEDTATYYCTRDRVYYGSNWFVYWGQGTLVTVSS VL: DIQMTQSPHSLSASLGETVSIECLASEGISNYLAWYQQKPGKSPQLLIYYASSLQDGVPSRFSGSGSGTQYSLKISNMQPEDEGIYYCQQHYKYPWTFGGGTKLELK: 53.8 nM
- Ab245 (antibody, human IgG4, V domains shown, also called Anti-PAR-2 antibody # 245) VH: QVQLKESGPGLVQPSQTLFLTCTVSGFSLTSYHVSWVRQPPGKGLEWMGIIWTGGSTAYNSLLKPRLTISRDTSKSQVFLKMNSLRTEDTATYYCARRGLYPFYFDYWGQGVMVTVSS VL: EVVLTQSPTTMAASPGEKVTITCRATSSVSHMYWYQQKSGASPKPWIYETSKLASGVPDRFRGSGSGTSYSFTISSMETEDVATYYCHQWSSFPYTFGPGTKLELK: 3.8 nM
- Ab84 (antibody, human IgG4, V domains shown, also called Anti-PAR-2 antibody # 84) VH: EVQLIESGGGLVQPKGSLKLSCAASGFTFNSYAMHWVRQAPGKGLEWVARIRSKNVHYATYYADSVKDRFTISRDDSQSMLYLQMNNLKTEDTAMYFCVREDYYGSSYDYWGQGTTLTVSS VL: DIVMTQSHKFMSTSVGDRVSITCKASQDVGSAVAWHQQKPGQSPKLLIYWTSNRHTGVPDRFTGRRSGTDFTLTISNVQSEDLADYFCQQYSTYPFTFGSGTKLEIK: 6 nM

Param item = Ab348 (antibody, human IgG4, V domains shown, also called Anti-PAR-2 antibody # 348) VH: QVQLKESGPGLVQPSQTLSLTCSVSGFSLSSYGVIWVRQPPGKGLEWMGVVWGNGNTAYNFTLKSRLTISRDTSKSQVFLKMNNLQTEDTAMYFCGRWRGFKDYPFDYWGQGVMVTVSS VL: DIQMTQSPSFLSASVGDRVTINCKASQNIYKYLDWYQQKLGEAPKLLIYNTNSLHTGIPSRFSGSGSGTDFTLTISSLQPEDVATYFCLQHNSGWTFGGGTKLELK ; retrieve measured IC50, PAR-2 β-arrestin cell assay.
2.7 nM

Would you kindly share the measured IC50, PAR-2 β-arrestin cell assay for Ab114 (antibody, human IgG4, V domains shown, also called Anti-PAR-2 antibody # 114) VH: QVQLQQSGPELVKPGASVKISCKTSGFTFTSYYIHWVKQRPGQGLEWIGWIYPGSGNTYYNERFKGKATLTADTSSSTASMQLSSLTSEDSAVYYCANGPLFYGSSYWYFDVWGTGTTVTVSS VL: DVQITQSPSYLAASPGETITINCRASKSISRYLAWYQEKPGKTNKLLIYSGSTLQSGVPSRFSGSGFGTDFTLTISSLEPEDFAMYYCQQHNKYPLTFGAGTKLELK ?
36.7 nM

Endpoint output: IC50, PAR-2 β-arrestin cell assay of Ab189 (antibody, human IgG4, V domains shown, also called Anti-PAR-2 antibody # 189) VH: EVQLVESGGGLVQPKGSLKLSCAASGFTFNTYAMHWVRQAPGKGLEWVARIRSKTTNYATYYADSVKDRFTISRDDSQSMLYLQISNLKTEDTAMYYCVREDYYGSSLDYWGQGTTLTVSS VL: QIVLTQSPAIMSASLGERVTMTCTASSSVISSYLHWYQQKPGSSPKLWIFSTSNLASGVPARFSGSGSGTSYSLTISTMEAEDAATYYCHQYHRSPLTFGAGTKLELK . Value?
123 nM

What value of IC50, PAR-2 β-arrestin cell assay has been reported for the following binder? Ab1 (antibody, human IgG4, V domains shown, also called Anti-PAR-2 antibody # 1) VH: EVQLVEFGGGLVQPKGSLKLSCAASGFTFNTNAMHWVRQAPGKGLEWVARIGSKSSYFATYYADSVKDRFTISRDDSRSMFYLQMNNLKTEDTAMYYCVREDYYGSSFDLWGQGTTLTVSS VL: QIVLSQSPAILSASPGEKVTMTCRASSSLPYIHWYQQKPGSSPRPWIYATSNLASGVPARFSGRGSGTSYSLTISRMEAEDAATYYCQQWSSTPPTFGGGSKLEIK
8.4 nM
